Provenance of the data: patent US11987586B1

Documented OX2R agonist activity (3 uM, %) across a set of molecules
# experimental-system: human OX2 receptor (Homo sapiens)
# Construct: expressed in transfected cells
# assay-summary: Measurement of orexin type 2 receptor agonist activity (calcium fluorescence, Fluo-4, FDSS)
# Format: cell-based
# applied-conditions: 3 uM test compound; CHO cells expressing human OX2 receptor; DMSO = 0%, 10 nM orexin A (human) = 100%
The reply should contain only the number, in %.

Please review the entries below; each comes with its answer.
| molecule | OX2R agonist activity (3 uM, %) |
| --- | --- |
| CS(=O)(=O)N[C@@H]1CN2C(=O)N(c3noc4cccc(-c5c(F)cc(F)cc5F)c34)CC[C@@H]2C1(F)F [Example 213] | 104 |
| CS(=O)(=O)NC1Cn2c(cn(-c3noc4cccc(-c5c(F)cccc5F)c34)c2=O)CC1(F)F (single isomer, unassigned) [Example 117] | 97 |
| CNS(=O)(=O)N[C@@H]1CN2C(=O)N(c3noc4cc(F)cc(-c5c(F)cc(F)cc5F)c34)C[C@@H]2C1(F)F [Example 144] | 102 |
| CS(=O)(=O)N[C@H]1C[C@H]2CCN(c3noc4cccc(-c5c(F)cccc5F)c34)C(=O)N2C1 [Example 317] | 110 |

-- ask Which OX2R agonist activity (3 uM, %) is reported for this molecule? Cc1cc2onc(N3C[C@H]4N(C[C@@H](NS(C)(=O)=O)C4(F)F)C3=O)c2c(-c2c(F)cc(F)cc2F)c1F [Example 119]
-- reply 105

-- ask Which OX2R agonist activity (3 uM, %) is reported for this molecule? CS(=O)(=O)N[C@@H]1CN2C(=O)N(c3noc4cc(Br)cc(-c5c(F)cccc5F)c34)CC[C@@H]2C1(F)F [Example 224]
-- reply 109

-- ask Which OX2R agonist activity (3 uM, %) is reported for this molecule? CS(=O)(=O)N[C@@H]1CN2C(=O)N(c3noc4cc(F)cc(-c5ncc(F)cc5F)c34)CC[C@@H]2C1(F)F [Example 295]
-- reply 113

-- ask Which OX2R agonist activity (3 uM, %) is reported for this molecule? CS(=O)(=O)N[C@@H]1CN2C(=O)N(c3noc4ccc(F)c(-c5c(F)cccc5F)c34)C[C@@H]2C1(F)F [Example 38]
-- reply 111

-- ask Which OX2R agonist activity (3 uM, %) is reported for this molecule? CCS(=O)(=O)N[C@@H]1CN2C(=O)N(c3noc4cc(Cl)cc(-c5c(F)cc(F)cc5F)c34)C[C@@H]2C1(F)F [Example 9]
-- reply 92

-- ask Which OX2R agonist activity (3 uM, %) is reported for this molecule? CS(=O)(=O)NC1Cn2c(cn(-c3noc4cc(F)cc(-c5c(F)cc(F)cc5F)c34)c2=O)CC1(F)F (single isomer, unassigned) [Example 214]
-- reply 106

-- ask Which OX2R agonist activity (3 uM, %) is reported for this molecule? CS(=O)(=O)N[C@@H]1CN2C(=O)N(c3noc4cc(Cl)c(F)c(-c5c(F)cc(F)cc5F)c34)C[C@@H]2C1(F)F [Example 40]
-- reply 103

-- ask Which OX2R agonist activity (3 uM, %) is reported for this molecule? CS(=O)(=O)N[C@@H]1CC[C@H]2CN(c3noc4cccc(-c5c(F)cccc5F)c34)C(=O)N2C1 (relative stereo) [Example 63]
-- reply 107

-- ask Which OX2R agonist activity (3 uM, %) is reported for this molecule? CCS(=O)(=O)N[C@H]1Cc2cn(-c3noc4cc(C(F)(F)F)cc(-c5c(F)cccc5F)c34)c(=O)n2C1 [Example 84]
-- reply 92

====

# experimental-system: human OX2 receptor (Homo sapiens)
# Construct: expressed in transfected cells
# assay-summary: Measurement of orexin type 2 receptor agonist activity (calcium fluorescence, Fluo-4, FDSS)
# Format: cell-based
# applied-conditions: 3 uM test compound; CHO cells expressing human OX2 receptor; DMSO = 0%, 10 nM orexin A (human) = 100%
measured-quantity: OX2R agonist activity (3 uM, %)
The reply should contain only the number, in %.

Please review the entries below; each comes with its answer.
| compound | unit-string | OX2R agonist activity (3 uM, %) |
| --- | --- | --- |
| CCS(=O)(=O)NC1Cn2c(cn(-c3noc4cccc(-c5c(F)cccc5F)c34)c2=O)C1(F)F (single isomer, unassigned) | % | 106 |
| COCc1cc2onc(-n3cc4n(c3=O)C[C@@H](NS(C)(=O)=O)C4(F)F)c2c(-c2c(F)cc(F)cc2F)c1F | % | 89 |

-- ask Which OX2R agonist activity (3 uM, %) is reported for this compound? CS(=O)(=O)N[C@@H]1Cn2c(cn(-c3noc4cc(F)cc(-c5c(F)cccc5F)c34)c2=O)C1(F)F
-- reply 102

====

Documented OX2R agonist activity (3 uM, %) across a set of compounds
# experimental-system: human OX2 receptor (Homo sapiens)
# Construct: expressed in transfected cells
# assay-summary: Measurement of orexin type 2 receptor agonist activity (calcium fluorescence, Fluo-4, FDSS)
# Type: cell-based
# applied-conditions: 3 uM test compound; CHO cells expressing human OX2 receptor; DMSO = 0%, 10 nM orexin A (human) = 100%
The reply should contain only the number, in %.

Please review the entries below; each comes with its answer.
| compound | recorded-measurement |
| --- | --- |
| CCS(=O)(=O)N[C@@H]1CN2C(=O)N(c3noc4cc(C)c(F)c(-c5c(F)cc(F)cc5F)c34)C[C@@H]2C1(F)F | 102 |
| CCS(=O)(=O)N[C@@H]1Cn2c(cn(-c3noc4nc(C)cc(-c5c(F)cc(F)cc5F)c34)c2=O)C1(F)F | 96 |
| CCS(=O)(=O)N[C@@H]1CN2C(=O)N(c3noc4cccc(-c5cccs5)c34)CC[C@@H]2C1(F)F | 103 |

-- ask Which OX2R agonist activity (3 uM, %) is reported for this compound? CS(=O)(=O)N[C@@H]1Cn2c(cn(-c3noc4cc(Cl)cc(-c5c(F)cc(F)cc5F)c34)c2=O)C1(F)F
-- reply 107

-- ask Which OX2R agonist activity (3 uM, %) is reported for this compound? CNS(=O)(=O)N[C@@H]1CN2C(=O)N(c3noc4cc(F)cc(-c5c(F)cccc5F)c34)C[C@@H]2C1(F)F
-- reply 100

-- ask Which OX2R agonist activity (3 uM, %) is reported for this compound? Cc1c(-c2noc3cccc(-c4c(F)cccc4F)c23)c(=O)n2n1CC(NS(C)(=O)=O)C2 (single isomer, unassigned)
-- reply 92

====

# experimental-system: human OX2 receptor (Homo sapiens, UniProt O43614)
# Construct: expressed in transfected cells
# Sequence (O43614 whole entry): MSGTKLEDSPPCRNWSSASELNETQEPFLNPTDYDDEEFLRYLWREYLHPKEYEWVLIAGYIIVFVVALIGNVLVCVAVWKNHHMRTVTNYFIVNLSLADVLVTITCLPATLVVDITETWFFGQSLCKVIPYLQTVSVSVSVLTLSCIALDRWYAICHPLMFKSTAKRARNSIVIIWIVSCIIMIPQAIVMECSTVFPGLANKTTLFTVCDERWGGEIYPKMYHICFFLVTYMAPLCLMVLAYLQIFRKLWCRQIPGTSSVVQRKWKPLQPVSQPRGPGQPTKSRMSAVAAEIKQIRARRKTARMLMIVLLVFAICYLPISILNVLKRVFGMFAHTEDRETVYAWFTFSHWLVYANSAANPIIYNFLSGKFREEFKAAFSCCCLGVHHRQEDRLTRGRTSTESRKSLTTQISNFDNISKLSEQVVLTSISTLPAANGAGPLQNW
# assay-summary: Measurement of orexin type 2 receptor agonist activity (calcium fluorescence, Fluo-4, FDSS)
# Type: cell-based
# applied-conditions: 3 uM test compound; CHO cells expressing human OX2 receptor; DMSO = 0%, 10 nM orexin A (human) = 100%
Documented OX2R agonist activity (3 uM, %) across a set of compounds
The reply should contain only the number, in %.

Please review the entries below; each comes with its answer.
| compound | measured-quantity | unit-string | recorded-measurement |
| --- | --- | --- | --- |
| Cc1cc2onc(N3CC[C@H]4N(C[C@@H](NS(C)(=O)=O)C4(F)F)C3=O)c2c(-c2c(F)cc(F)cc2F)n1 [Example 248] | OX2R agonist activity (3 uM, %) | % | 107 |
| CCS(=O)(=O)N[C@@H]1CN2C(=O)N(c3noc4cccc(-c5c(F)cccc5F)c34)C[C@]2(C)C1 [Example 57] | OX2R agonist activity (3 uM, %) | % | 88 |

-- ask Which OX2R agonist activity (3 uM, %) is reported for this compound? Cc1cc(-c2c(F)cc(F)cc2F)c2c(-n3cc4n(c3=O)C[C@@H](NS(C)(=O)=O)C4(F)F)noc2c1 [Example 127]
-- reply 102

-- ask Which OX2R agonist activity (3 uM, %) is reported for this compound? CCS(=O)(=O)N[C@@H]1CN2C(=O)N(c3noc4cc(F)cc(-c5c(F)cccc5F)c34)CC[C@@H]2C1(F)F [Example 247]
-- reply 101

-- ask Which OX2R agonist activity (3 uM, %) is reported for this compound? O=C1N(c2noc3cc(F)c(F)c(-c4c(F)cc(F)cc4F)c23)CC[C@H]2N1C[C@@H](NS(=O)(=O)CF)C2(F)F [Example 297]
-- reply 107

-- ask Which OX2R agonist activity (3 uM, %) is reported for this compound? O=C1N(c2noc3cc(F)c(F)c(-c4c(F)cc(F)cc4F)c23)CC[C@H]2N1C[C@@H](NS(=O)(=O)C1CC1)C2(F)F [Example 305]
-- reply 113

-- ask Which OX2R agonist activity (3 uM, %) is reported for this compound? Cc1cc(-c2c(F)cccc2F)c2c(-n3cc4n(c3=O)C[C@@H](NS(C)(=O)=O)C4(F)F)noc2c1 [Example 180]
-- reply 100

-- ask Which OX2R agonist activity (3 uM, %) is reported for this compound? CS(=O)(=O)N[C@@H]1CN2C(=O)N(c3noc4cccc(-c5cccs5)c34)CC[C@@H]2C1(F)F [Example 278]
-- reply 109

-- ask Which OX2R agonist activity (3 uM, %) is reported for this compound? CS(=O)(=O)N[C@H]1C[C@H]2CN(c3noc4cccc(-c5c(F)cccc5F)c34)C(=O)[C@H]2C1 (relative stereo) [Example 338]
-- reply 100

-- ask Which OX2R agonist activity (3 uM, %) is reported for this compound? CS(=O)(=O)N[C@@H]1CN2C(=O)N(c3noc4cccc(-c5cc(F)ccc5F)c34)CC[C@@H]2C1(F)F [Example 292]
-- reply 106
